# test_details: Anticancer human tumor 997537-175-T-J1-PDC patient-derived colon adenocarcinoma cell line growth inhibition [POLQ]
# run_parameters: 997537-175-T-J1-PDC complex spheroid viability, combination with POLQ inhibitors; curve of first compound; second compound 3.16 µM
# Description: Multicellular complex tumor spheroid response to Polymerase (POL) inhibitors (novobiocin, ART-558, RP6685) in combination with a variety of drugs and investigational agents in selected tumor cell lines The POL inhibitors (novobiocin, ART-558, and RP6685) were evaluated both individually and in combination with standard of care and investigational anticancer small molecules within a complex spheroid model of solid tumors. . […]
pIC50: −log10 of the molar value.
quantity_name: pIC50

# annotated cases, reported pIC50 shown
INSERT INTO measurements (compound, quantity_name, reported_measurement) VALUES
  ('CNCc1ccc(-c2[nH]c3cc(F)cc4c3c2CCNC4=O)cc1 + Nc1ccc(C#CCN(C(=O)Cc2ncc(C(F)(F)F)cc2C(F)(F)F)c2ccc(F)cc2)nn1', 'pIC50', '< 5.00'),
  ('Cn1ncnc1[C@H]1c2n[nH]c(=O)c3cc(F)cc(c23)N[C@@H]1c1ccc(F)cc1 + Nc1ccc(C#CCN(C(=O)Cc2ncc(C(F)(F)F)cc2C(F)(F)F)c2ccc(F)cc2)nn1', 'pIC50', '< 7.00');

Note: attention shifts to another entry.
Q. Look at this compound and give its reported pIC50. O=C(c1cc(Cc2n[nH]c(=O)c3ccccc23)ccc1F)N1CCN(C(=O)C2CC2)CC1 + Nc1ccc(C#CCN(C(=O)Cc2ncc(C(F)(F)F)cc2C(F)(F)F)c2ccc(F)cc2)nn1
A. < 5.00

* * *

Each entry below carries its reported IC50.
# test_details: Anticancer human tumor 997537-175-T-J1-PDC cell line growth inhibition [POLQ];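 also: luminescence signal used as a surrogate for viable cells; spheroids exposed to drugs for seven days before readout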
# run_parameters: 997537-175-T-J1-PDC complex spheroid viability, combination with POLQ inhibitors; curve of first compound; second compound 3.16 µM

# annotated cases, reported IC50 shown
INSERT INTO measurements (molecule, quantity_name, reported_measurement) VALUES
  ('COc1cc2cc(C(=O)CCC(=O)O)sc2cc1OC + COC1C(OC(N)=O)C(O)C(Oc2ccc3c(O)c(NC(=O)c4ccc(O)c(CC=C(C)C)c4)c(=O)oc3c2C)OC1(C)C', 'IC50', '> 10 µM'),
  ('C#Cc1c(F)ccc2cc(O)cc(-c3ncc4c(N5CC6CCC(C5)N6)nc(OCC56CCCN5CC(F)C6)nc4c3F)c12 (stereo not drawn) + Cc1cccc(N(C)C(=O)C2C(O)CCN2c2nc(C)cc(C(F)(F)F)c2C#N)c1', 'IC50', '> 10 µM');

Note: attention shifts to another entry.
Q. Look at this molecule and give its reported IC50. CCc1cc2c(N3CCc4c(cc(Cn5ccnc5)cc4-c4cn(C)nc4C(F)(F)F)C3=O)ccnc2c(OC)n1 + Cc1cccc(N(C)C(=O)C2C(O)CCN2c2nc(C)cc(C(F)(F)F)c2C#N)c1
A. > 10 µM

* * *

Each entry below carries its reported IC50.
# test_details: Anticancer human tumor 997537-175-T-J1-PDC cell line growth inhibition [POLQ];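 also: luminescence signal used as a surrogate for viable cells; spheroids exposed to drugs for seven days before readout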
# run_parameters: 997537-175-T-J1-PDC complex spheroid viability, combination with POLQ inhibitors; curve of first compound; second compound 3.16 µM

# annotated cases, reported IC50 shown
INSERT INTO assay_data (molecule, reported_measurement) VALUES
  ('CNCc1ccc(-c2[nH]c3cc(F)cc4c3c2CCNC4=O)cc1 + Cc1cccc(N(C)C(=O)C2C(O)CCN2c2nc(C)cc(C(F)(F)F)c2C#N)c1', '> 10 µM'),
  ('CC1COCCN1c1cc(C2(O)CC3CCC(C2)O3)c2cnn(-c3ccn[nH]3)c2n1 (stereo not drawn) + COC1C(OC(N)=O)C(O)C(Oc2ccc3c(O)c(NC(=O)c4ccc(O)c(CC=C(C)C)c4)c(=O)oc3c2C)OC1(C)C', '> 10 µM');

Note: attention shifts to another entry.
Q. Look at this molecule and give its reported IC50. CC1COCCN1c1cc(C2(S(C)(=N)=O)CC2)nc(-c2ccnc3[nH]ccc23)n1 (stereo not drawn) + COC1C(OC(N)=O)C(O)C(Oc2ccc3c(O)c(NC(=O)c4ccc(O)c(CC=C(C)C)c4)c(=O)oc3c2C)OC1(C)C
A. > 10 µM
